The origin of these recorded values is ChEMBL document CHEMBL4665709.

- protocolSummary: Therapeutic index, ratio of MHC for human RBC to geometric mean of peptide MIC for Salmonella pullorum 7913
- Format: toxicity
- measurementConditions: human red blood cells (RBC), read-out: TI
Where a SMILES comes first, the peptide text is derived from it.
Listed here are compounds together with their documented selectivity ratio.
Write the number on its own, no unit after it.

Some compounds with recorded selectivity ratio:
CC[C@H](C)[C@H](N)C(=O)N[C@@H](CS)C(=O)N[C@@H](CCCNC(=N)N)C(=O)N[C@@H](CCCCN)C(=O)N1CCC[C@H]1C(=O)N[C@H](C(=O)N[C@H](C(=O)N[C@@H](CS)C(=O)N[C@@H](CCCNC(=N)N)C(=O)N[C@@H](CCCCN)C(=O)N1CCC[C@H]1C(=O)N[C@H](C(=O)N[C@H](C(=O)N[C@@H](CS)C(=O)N[C@@H](CCCNC(=N)N)C(=O)N[C@@H](CCCCN)C(=O)N1CCC[C@H]1C(=O)N[C@H](C(N)=O)[C@@H](C)CC)[C@@H](C)CC)[C@@H](C)CC)[C@@H](C)CC)[C@@H](C)CC (H-ICRKPIICRKPIICRKPI-NH2)
11.3
CC[C@H](C)[C@H](N)C(=O)N[C@@H](CS)C(=O)N[C@@H](CCCNC(=N)N)C(=O)N[C@@H](CCCCN)C(=O)N1CCC[C@H]1C(=O)N[C@H](C(=O)N[C@H](C(=O)N[C@@H](CS)C(=O)N[C@@H](CCCNC(=N)N)C(=O)N[C@@H](CCCCN)C(=O)N1CCC[C@H]1C(=O)N[C@H](C(N)=O)[C@@H](C)CC)[C@@H](C)CC)[C@@H](C)CC (H-ICRKPIICRKPI-NH2)
2

Return value of selectivity ratio for input CC[C@H](C)[C@H](N)C(=O)N[C@H](C(=O)N[C@H](C(=O)N[C@@H](CS)C(=O)N[C@@H](CCCNC(=N)N)C(=O)N[C@@H](CCCCN)C(=O)N1CCC[C@H]1C(=O)N[C@H](C(=O)N[C@H](C(=O)N[C@@H](CS)C(=O)N[C@@H](CCCNC(=N)N)C(=O)N[C@@H](CCCCN)C(=O)N1CCC[C@H]1C(=O)N[C@H](C(=O)N[C@H](C(=O)N[C@H](C(N)=O)[C@@H](C)CC)[C@@H](C)CC)[C@@H](C)CC)[C@@H](C)CC)[C@@H](C)CC)[C@@H](C)CC)[C@@H](C)CC (H-IIICRKPIICRKPIII-NH2) , no commentary. 6.35
